Recorded MCH for the following compounds
Species on record: Rattus norvegicus
procedureDetails: Open TG-GATES - Regimen: Daily Repeat
Assay type: toxicity, organism-based, Sprague-Dawley
Parameters: regimen Daily Repeat, gender Male, age 6 weeks
measurementParameters: in vivo, po, 100 mg/kg, […], tissue Blood, route gavage, dose level Low, time 7 day
Numeric answer only, unit pg assumed.

Record excerpt, results attached:
• CCOc1ccc(NC(=O)CC(C)O)cc1 (stereo not given) = 20.5
• COC1=CC(=O)C[C@@H](C)[C@]12Oc1c(Cl)c(OC)cc(OC)c1C2=O = 21.3
• CCOC(=O)CCC(=O)O[C@H]1[C@H](O[C@@H]2[C@@H](C)[C@H](O[C@H]3C[C@@](C)(OC)[C@@H](O)[C@H](C)O3)[C@@H](C)C(=O)O[C@H](CC)[C@@](C)(O)[C@H](O)[C@@H](C)C(=O)[C@H](C)C[C@@]2(C)O)O[C@H](C)C[C@@H]1N(C)C [ERYTHROMYCIN ETHYLSUCCINATE] = 20.4
• COc1ccc2[nH]c([S+]([O-])Cc3ncc(C)c(OC)c3C)nc2c1 (stereo not given) = 20.7

// moving on: another record for MCH
In: Reported MCH for `NC(N)=Nc1nc(CSCCC(N)=NS(N)(=O)=O)cs1` : what is it?
Out: 22
